Please respond with reported IC50 for every item in the list.
system: KRAS WT (Homo sapiens, UniProt P01116+P62937)
Sequence (P01116 1-169 isoform P01116-2 limits assumed): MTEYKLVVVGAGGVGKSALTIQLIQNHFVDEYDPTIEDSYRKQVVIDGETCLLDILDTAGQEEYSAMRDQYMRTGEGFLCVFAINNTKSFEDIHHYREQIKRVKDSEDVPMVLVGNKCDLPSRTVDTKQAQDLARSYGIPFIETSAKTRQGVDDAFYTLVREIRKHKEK
Sequence (P62937 whole entry): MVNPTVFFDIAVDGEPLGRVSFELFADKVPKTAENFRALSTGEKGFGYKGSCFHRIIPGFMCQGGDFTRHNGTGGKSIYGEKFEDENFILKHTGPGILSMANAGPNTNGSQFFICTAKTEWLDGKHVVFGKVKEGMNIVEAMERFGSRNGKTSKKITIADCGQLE
assay-comment: Ras-Raf disruption / FRET / MOA assay (BRAF RBD)
Format: biochemical
cond: Ras-Raf disruption, with Cyclophilin A; read-out: KRAS WT FRET data IC50
Source text: Disruption of […] Ras-binding Domain (BRAF^RBD) Interaction with K-Ras by Compounds of the Invention (also Called a FRET Assay or an MOA Assay) Note—The following protocol describes a procedure for monitoring disruption of K-Ras G12C (GMP-PNP) binding to BRAF^RBD by a compound of the invention. This protocol may also be executed substituting other Ras proteins or nucleotides, such as K-Ras G12D and K-Ras G13D. […]

Query: Consider the compound shown here: CCn1c(-c2cccnc2[C@H](C)OC)c2c3cc(ccc31)-c1cc(O)cc(c1)C[C@H](NC(=O)[C@H](C(C)C)N(C)C(=O)[C@H]1CCN(C(=O)[C@H]3CN3)[C@H]1C)C(=O)N1CCC[C@H](N1)C(=O)OCC(C)(C)C2 (atropisomer, axis not shown) What is its recorded IC50?
Reply: 100 to 1000 nM

Query: Recorded IC50 for CCn1c(-c2cccnc2[C@H](C)OC)c2c3cc(ccc31)-c1cc(O)cc(c1)C[C@H](NC(=O)[C@H](C(C)C)N(C)C(=O)c1ccc(NC(=O)[C@@H]3CN3)cn1)C(=O)N1CCC[C@H](N1)C(=O)OCC(C)(C)C2 (atropisomer, axis not shown) , please?
Reply: 100 to 1000 nM

Query: Fill blank: measured IC50 of the compound CCn1c(-c2cccnc2[C@H](C)OC)c2c3cc(ccc31)-c1cccc(c1)C[C@H](NC(=O)[C@H](C1CCCC1)N1CC[C@]3(CCN(C(=O)[C@@H]4N[C@@H]4C4CC4)C3)C1=O)C(=O)N1CCC[C@H](N1)C(=O)OCC(C)(C)C2 is ____.
Reply: 1000 to 10000 nM

Query: Requested field: IC50. Item: CCn1c(-c2cccnc2[C@H](C)OC)c2c3cc(ccc31)-c1csc(n1)C[C@H](NC(=O)[C@H](C(C)C)N(C)C(=O)N(C)C1CN(C(=O)[C@@H]3CN3)C1)C(=O)N1CCC[C@H](N1)C(=O)OCC(C)(C)C2
Reply: 100 to 1000 nM
